Data origin: ChEMBL document CHEMBL1667813

# key: entry, value: Ratio IC50
# Organism: Homo sapiens
# Assay: Selectivity ratio of IC50 for human cathepsin F to IC50 for human cathepsin K
Observable: Ratio IC50

compound=CC(C)(F)C[C@H](N[C@@H](c1ccc(-c2ccc(C3(C(N)=O)CC3)cc2F)cc1)C(F)F)C(=O)NC1(C#N)CC1 number=2340
compound=CC(C)C[C@H](N[C@@H](c1ccc(-c2ccc(S(C)(=O)=O)cc2)cc1)C(F)F)C(=O)NC1(C#N)CC1 number=645
compound=CC(C)C[C@H](N[C@@H](c1ccc(-c2ccc(S(C)(=O)=O)cc2)cc1)C(F)(F)F)C(=O)NCC#N number=480
compound=CC(C)(F)C[C@H](N[C@@H](c1ccc(-c2ccc(S(C)(=O)=O)cc2)cc1)C(F)F)C(=O)NC1(C#N)CC1 number=1920
compound="CC(C)C[C@H](N[C@@H](c1ccc(-c2ccc(C(O)C(F)(F)F)cc2)cc1)C(F)F)C(=O)NC1(C#N)CC1 (some centres undefined)" number=126
compound="CC(C)(F)C[C@H](N[C@@H](c1ccc(-c2ccc(S(C)(=O)=O)cc2)cc1)C(F)(F)F)C(=O)NC1(C#N)CC1 [ODANACATIB]" number=3980
compound=CC(C)C[C@H](N[C@@H](c1ccc(-c2ccc(S(C)(=O)=O)cc2)cc1)C(F)F)C(=O)NCC#N number=822
compound=CC(C)(F)C[C@H](N[C@@H](c1ccc(-c2ccc(C3(C(N)=O)CC3)cc2F)cc1)C(F)(F)F)C(=O)NC1(C#N)CC1 number=1380
compound=CC(C)C[C@H](N[C@@H](c1ccc(-c2ccc(S(C)(=O)=O)cc2)cc1)C(F)(F)F)C(=O)NC1(C#N)CC1 number=370
